# maps each entry to its composite Z-score
test: small-molecule microarray binders of probe aXIP, primary screen, biochemical, NeuroSMM set, 635/667 nm fluorescence (AID 1119); conditions: higher = more signal, called active from +8 up or from −8 down;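 note: probe is the protein aXip251-270 applied at 1 µg/mL to compound-printed slides; binding of probe to printed compounds measured as 667 nm fluorescence plus signal to noise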
Give the figure only, with no unit attached.

Example cases with answers are listed next.
Molecule	composite Z-score
O=C1C[C@@H](O)[C@@H](O)[C@@H]2[C@@H]3C(=O)N(c4cccc(Oc5ccccc5)c4)C(=O)[C@@H]3CC[C@@H]12	-0.397
CC1CC/C=C\[C@H]2OC34C=CCN(C(C)C)C(=O)[C@H]3N(CCCO)C(=O)[C@@H]4C2C(=O)O1 (some centres undefined)	-1.03
CN(C)c1ccc(C(O)C2C=CC3C(=O)N(c4ccccc4)C(=O)C3N2Nc2ccccc2F)cc1 (centres undefined)	-0.122

Request: Tell us which composite Z-score value is on record for `COCC(=C=CC[C@@H](O)c1ccccc1OCCO)CCO`
Result: 0.493

----------
biological target: Streptavidin (Streptomyces avidinii); assay: streptavidin binders on small-molecule microarray, primary screen, artefact control for SMM compound annotation, biophysical, 635/667 nm fluorescence (AID 1147); details: streptavidin binding, higher = more signal;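 note: signal reflects streptavidin binding to arrayed compounds as a control protein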
# maps each entry to its composite z-score
Give the figure only, with no unit attached.

Example cases with answers are listed next.
Smiles repr	composite z-score
CC(CCN1CCc2nc(-c3ccccc3)c(-c3ccccc3)cc2C1)=NO[C@H](C)c1cn([C@@H]2COC[C@H]2O)nn1	-0.384
CC(C)(C)N1C(=O)[C@H]2[C@H]3[C@H](O)[C@H](O)CC(=NO[C@@H]4O[C@H](CO)[C@@H](O)[C@H](O)[C@H]4O)[C@@H]3CC[C@H]2C1=O	-0.223
CC(C)=C1C(=O)C(c2ccccc2)=C2CN3C(=O)N(CCc4ccccc4)C(=O)[C@]3(Cc3ccc(F)cc3)[C@H]21	0.0452
COc1ccc(O[C@H]2C=C[C@@H](c3ccccc3)O[C@@H]2COC(=O)CCC(C)=NOCC[C@@H]2C=C[C@H](OC(C)=O)[C@@H](COC(C)=O)O2)cc1	0.0903
COc1ccc(O[C@@H]2[C@H](O)CO[C@H]2C=CC#Cc2ccccc2)cc1	-0.31

Request: Fetch value of composite z-score on Streptavidin (Streptomyces avidinii) for `CC(C)CON=C1[C@H]2CCn3c(=O)n(-c4ccccc4)c(=O)n3[C@H]2[C@H](O)[C@@H]2O[C@H]12` .
Result: -0.142

Request: Fetch value of composite z-score on Streptavidin (Streptomyces avidinii) for `CO[C@@H]1COC(=O)[C@@H]2CCCN2C(=O)[C@@H](C)COC(=O)[C@H](COCc2ccccc2)NC(=O)CC=C[C@H]1C` .
Result: 0.107

Request: Fetch value of composite z-score on Streptavidin (Streptomyces avidinii) for `COC(=O)CC=C[C@H](C)[C@H](CO)NS(=O)(=O)c1ccc(C)cc1` .
Result: 0.293

----------
# maps each entry to its z-score
experiment: P. aeruginosa biofilm formation inhibitors, primary screen, PAO1 strain, BacTiter-Glo luminescence, LB-PBS (AID 1144); details: 12 h, higher = more signal
Give the figure only, with no unit attached.

Example cases with answers are listed next.
Compound	z-score
COC(=O)CC=C[C@@H](C)[C@@H](C=NO[C@@H](C)c1cc(-c2c(C)cc(C)cc2C)no1)OC	-0.726
N#Cc1ccc(NN2C(C(O)c3cc(C(F)(F)F)cc(C(F)(F)F)c3)C=CC3C(=O)N(c4ccccc4)C(=O)C32)cc1 (stereo not drawn)	-0.875
O=C1[C@H]2[C@H]3[C@H](O)[C@H](O)CC(=NOC[C@@H](O)COCc4ccco4)[C@H]3CC[C@H]2C(=O)N1Cc1ccc2c(c1)OCO2	2.01
CN1C(=O)C2C=CC(C(O)c3ccc(I)cc3)N(NC(=O)OC(C)(C)C)C2C1=O (stereo not drawn)	0.155
COCCCNC(=O)[C@]1(CCC(=O)OC(C)(C)C)N=C(c2ccc(OCCCO)cc2)O[C@@H]1c1ccccc1N=[N+]=[N-]	-1.67
COc1ccccc1CN1C(=O)c2ccccc2[C@@]2(Cc3ccccc3N(C(C)C)C2=O)[C@@H]1c1ccc(CO)cc1	-0.205
C[C@@H]1CC[C@H]2C(=O)O[C@H](COc3ccc(C(C)(C)C)cc3)CN2[C@H]1c1ccc(Br)cc1	-0.301

Now turn to the next compound.
Request: Tell us which z-score value is on record for `COC(=O)[C@@]1(Cc2ccc(OC)cc2)[C@H]2c3cc(C(=O)N4CCCC4)n(Cc4cc(F)c(F)c(F)c4)c3C[C@H]2CN1C(=O)c1ccccc1`
Result: 0.112

----------
# maps each entry to its z-score
experiment: E. coli acrAB mutant growth effects, primary screen, E. coli filamentation inducers, strain DRC39, OD650, 24 h (AID 1178); conditions: higher = more signal, called active from +8 up or from −8 down;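 note: growth measured as culture turbidity by optical density at 650 nm; test concentration not given here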
Give the figure only, with no unit attached.

Compound	z-score
CCc1cc2c(nc1CC)CCN(CCC(C)=NO[C@@H](C)c1cc(-c3c(C)cc(C)cc3C)no1)C2	0.416
COC(=O)CC1OC1[C@H](C)[C@@H](OC)C(C)C (stereo partly drawn)	0.487
CCN(CC)c1ccc(N2CC=CC34O[C@@H]5/C=C\CCC(C)OC(=O)C5[C@H]3C(=O)N(CCCO)[C@@H]4C2=O)cc1 (stereo partly drawn)	0.692

Request: Tell us which z-score value is on record for `C=CC[C@@H]1C=C[C@H](ON=C2c3cc(OC)ccc3O[C@H](c3cccc(OC)c3)[C@H]2O)[C@@H](CO)O1`
Result: 0.57

Request: Tell us which z-score value is on record for `C=COC[C@H]1CN2[C@@H](CC[C@@H](C)[C@@H]2c2ccc(Br)cc2)C(=O)O1`
Result: 0.0556

Request: Tell us which z-score value is on record for `NC(=O)NCC#Cc1ccc2c(c1)[C@]1(C(=O)N2)[C@H](c2ccc(O)cc2)N2[C@H](c3ccccc3)[C@H](c3ccccc3)OC(=O)[C@H]2[C@@H]1C(=O)N1CCCCCCC1`
Result: 1.04

Request: Tell us which z-score value is on record for CN1C(=O)C2C=CC(C(O)c3ccc(Br)cc3)N(N(c3ccccc3)c3ccccc3)C2C1=O (stereo not drawn)
Result: -0.499

Request: Tell us which z-score value is on record for `CC(C)[C@@H](OCc1ccccc1)[C@H](C)C=NO[C@H](C)c1cn([C@H](CO)Cc2ccccc2)nn1`
Result: -0.0325

----------
assay: CREB reporter modulators without forskolin, primary screen, cell-based, PC12, CRE-LacZ reporter, unstimulated (AID 1145); conditions: no forskolin, luminescence, 4.5 h, higher = more signal, called active from +8 up or from −8 down
The source made the active and inactive calls.
Test readout: z-score

Example cases with answers are listed next.
Compound	z-score
C=CCC(OC(C)=O)[C@@H]1[C@@H](N(Cc2cc3ccccc3o2)C(=O)Cc2ccc(F)cc2)c2cc(OCCCO)ccc2N1C(=O)Cc1ccc(OC)cc1 (stereo partly specified)	1.27 (inactive)
Cc1ccc(F)cc1S(=O)(=O)N[C@@H]1CCN(Cc2ccc(CC(C)C)cc2)C1	-0.683 (inactive)
CCOC(=O)C[C@H]1[C@H](OC(=O)c2cc3ccccc3oc2=O)[C@@H](NC(=O)c2ccc3ccccc3n2)c2cc(OCCCO)ccc2N1C(=O)c1ccccc1	11.9 (active)

Request: Tell us which z-score value is on record for `COC(=O)CC=C[C@@H](C)[C@@H](C=NO[C@H](C)c1cn([C@@H]2COC[C@H]2O)nn1)OC`
Result: 0.518 (inactive)

Request: Tell us which z-score value is on record for `COc1ccc(O[C@H]2C=C[C@@H](c3ccccc3)O[C@@H]2COC(=O)CCC(C)=NOCC[C@@H]2C=C[C@H](OC(C)=O)[C@@H](COC(C)=O)O2)cc1`
Result: 0.918 (inactive)

Request: Tell us which z-score value is on record for `Cc1ccc(S(=O)(=O)N[C@@H]2COC(=O)[C@H](C)COC(=O)CC=C[C@H]2C)cc1`
Result: 0.0676 (inactive)

----------
assay: E. coli acrAB mutant growth effects, primary screen, E. coli filamentation inducers, strain DRC39, OD650, 24 h (AID 1178); conditions: higher = more signal, called active from +8 up or from −8 down;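 note: growth measured as culture turbidity by optical density at 650 nm; test concentration not given here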
Test readout: z-score
Give the figure only, with no unit attached.

Example cases with answers are listed next.
Compound	z-score
CC(CCN1CCc2nc(-c3ccccc3)c(-c3ccccc3)cc2C1)=NO[C@H](C)c1cn([C@@H]2COC[C@H]2O)nn1	0.532
Cc1cc(C)c(-c2cc([C@H](C)ON=C3[C@H]4CCn5c(=O)n(-c6ccccc6)c(=O)n5[C@H]4[C@H](O)[C@@H]4O[C@H]34)on2)c(C)c1	0.663
CCOC(=O)[C@H](CC(C)C)NC(=O)CCC1CC(OC(=O)NCc2cccc3ccccc23)CC2(CCCC(COC(=O)NCCN3CCOCC3)O2)O1 (stereo not given in full)	-0.404
CO[C@H]1COC(=O)[C@H](C)NC(=O)[C@@H](C)COC(=O)CC=C[C@@H]1C	0.327
CC(C)(C)N1C(=O)[C@H]2[C@H]3[C@H](O)[C@H](O)CC(=NO[C@@H]4O[C@H](CO)[C@@H](O)[C@H](O)[C@H]4O)[C@@H]3CC[C@H]2C1=O	0.398
CC(C)NC(=O)[C@@]1(C)c2ccccc2C(=O)N(Cc2cc(F)cc(C(F)(F)F)c2)[C@H]1c1ccc(CO)cc1	-0.0821
CO[C@@H]1COC(=O)CCC[C@@H](C)[C@H](OC)COC(=O)CCC[C@H]1C	0.265
O=C1[C@H]2[C@H]3[C@H](O)[C@H](O)CC(=NO[C@@H]4O[C@H](CO)[C@@H](O)[C@H](O)[C@H]4O)[C@H]3CC[C@H]2C(=O)N1Cc1ccccc1	-0.395

Request: Tell us which z-score value is on record for `COCCOC(=O)N1C(=O)[C@@]2(c3cc(C#CCNC(N)=O)ccc31)[C@H](c1ccc(O)cc1)N1[C@H](c3ccccc3)[C@H](c3ccccc3)OC(=O)[C@H]1[C@@H]2C(=O)N1CCCCCCC1`
Result: 0.474

Request: Tell us which z-score value is on record for COCCNC(=O)OCC1CCCC2(CC(OC(=O)NCCc3ccc(F)cc3)CC(CCC(=O)N[C@@H](C)C(=O)OC)O2)O1 (stereo not given in full)
Result: 0.963

Request: Tell us which z-score value is on record for `CC(C)OC(=O)C=C1C[C@@H](c2ccc(C#N)cc2)O[C@@H](c2ccc(C#N)cc2)O1`
Result: -0.667

Request: Tell us which z-score value is on record for `C[C@H]1CC[C@@H](C(=O)O)N[C@@H]1c1ccc(C#CCN(C)C)cc1`
Result: 0.554

Request: Tell us which z-score value is on record for `O=C1C[C@@H](O)[C@@H](O)[C@@H]2[C@@H]3C(=O)N(c4ccc(F)cc4F)C(=O)[C@@H]3CC[C@@H]12`
Result: -0.385

Request: Tell us which z-score value is on record for `CCOC(=O)C1=CC[C@H]2C(=O)N(CC)C(=O)[C@@H]12`
Result: -0.0583

Request: Tell us which z-score value is on record for `COC(=O)[C@H](C)NC(=O)[C@@H](C)CO`
Result: -1.45
